molecular target: BRM (Homo sapiens, UniProt P51531); assay: ATPase catalytic activity of BRM (ADP-Glo in vitro biochemical assay); settings: Table 6
Sequence (P51531 whole entry): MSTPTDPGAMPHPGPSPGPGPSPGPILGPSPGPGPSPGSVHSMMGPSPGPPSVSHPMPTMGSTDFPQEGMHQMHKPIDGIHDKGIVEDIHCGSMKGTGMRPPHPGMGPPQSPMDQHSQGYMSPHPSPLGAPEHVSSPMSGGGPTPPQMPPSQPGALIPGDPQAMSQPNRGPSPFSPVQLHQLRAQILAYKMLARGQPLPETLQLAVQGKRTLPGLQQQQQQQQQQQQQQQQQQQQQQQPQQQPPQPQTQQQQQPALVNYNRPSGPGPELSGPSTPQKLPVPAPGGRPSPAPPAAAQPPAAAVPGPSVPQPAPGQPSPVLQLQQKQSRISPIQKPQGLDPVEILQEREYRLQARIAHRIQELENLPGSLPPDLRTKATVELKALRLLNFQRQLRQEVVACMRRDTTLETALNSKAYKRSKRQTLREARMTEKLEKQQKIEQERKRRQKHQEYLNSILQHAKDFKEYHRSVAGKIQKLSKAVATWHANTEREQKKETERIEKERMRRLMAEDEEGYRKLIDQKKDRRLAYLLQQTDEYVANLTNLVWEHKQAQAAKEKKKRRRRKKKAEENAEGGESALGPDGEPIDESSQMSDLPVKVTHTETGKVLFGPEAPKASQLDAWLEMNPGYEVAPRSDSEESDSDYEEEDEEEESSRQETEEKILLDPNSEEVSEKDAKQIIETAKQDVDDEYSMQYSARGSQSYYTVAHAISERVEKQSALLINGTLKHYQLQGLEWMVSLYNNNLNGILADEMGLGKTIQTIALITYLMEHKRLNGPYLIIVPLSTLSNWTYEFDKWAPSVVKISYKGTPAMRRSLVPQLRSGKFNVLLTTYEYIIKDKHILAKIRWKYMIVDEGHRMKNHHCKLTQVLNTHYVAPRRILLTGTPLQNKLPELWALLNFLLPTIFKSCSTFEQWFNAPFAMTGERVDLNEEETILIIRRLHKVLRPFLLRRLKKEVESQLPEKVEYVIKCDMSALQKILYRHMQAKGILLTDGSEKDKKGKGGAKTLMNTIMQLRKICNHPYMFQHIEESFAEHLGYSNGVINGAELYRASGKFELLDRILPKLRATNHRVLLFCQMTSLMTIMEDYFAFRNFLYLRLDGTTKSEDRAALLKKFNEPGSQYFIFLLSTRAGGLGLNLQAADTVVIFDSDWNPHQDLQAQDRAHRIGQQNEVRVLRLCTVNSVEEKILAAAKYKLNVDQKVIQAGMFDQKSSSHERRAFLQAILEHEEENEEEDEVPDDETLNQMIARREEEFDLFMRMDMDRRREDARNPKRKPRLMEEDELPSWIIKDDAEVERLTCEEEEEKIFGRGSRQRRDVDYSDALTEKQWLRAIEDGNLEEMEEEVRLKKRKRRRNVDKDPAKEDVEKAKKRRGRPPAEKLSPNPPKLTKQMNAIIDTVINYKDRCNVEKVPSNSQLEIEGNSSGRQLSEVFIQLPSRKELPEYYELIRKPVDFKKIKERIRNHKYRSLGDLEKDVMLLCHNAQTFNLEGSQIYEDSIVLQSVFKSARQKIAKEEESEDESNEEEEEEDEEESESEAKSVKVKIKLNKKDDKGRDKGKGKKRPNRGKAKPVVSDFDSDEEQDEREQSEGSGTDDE
quantity: BRM Max % Inhibition

Guide cases for BRM Max % Inhibition, answers given:
Nc1ccc(C(=O)NCC(=O)Nc2nc(-c3cccc(C4CCCCO4)c3)cs2)cc1 (stereo not drawn) [Compound 239] | >90%
CC(C)(N)Cn1ccc(-c2cccc(-c3csc(NC(=O)CNC(=O)c4ccc(N)cc4)n3)c2)n1 [Compound 241] | >90%
Nc1ccc(C(=O)NCC(=O)Nc2nc(-c3cccc(-c4cccc(CO)c4)c3)cs2)cc1 [Compound 154] | >95%
CC(C)(C(=O)O)n1ccc(-c2cccc(-c3csc(NC(=O)CNC(=O)c4ccc(N)cc4)n3)c2)n1 [Compound 212] | >95%
CC(=O)NCc1cccc(-c2cccc(-c3csc(NC(=O)CNC(=O)c4ccc(N)cc4)n3)c2)c1 [Compound 124] | >95%
NCCOc1cc(-c2cccc(-c3csc(NC(=O)CNC(=O)c4ccc(N)cc4)n3)c2)ccn1 [Compound 163] | >95%

Query: Please give the documented BRM Max % Inhibition of Nc1ccc(C(=O)NCC(=O)Nc2nc(-c3cccc(-c4ccccc4F)c3)cs2)cc1 [Compound 142]
Result: >90%

Query: Quickly give me recorded BRM Max % Inhibition for Nc1ccc(C(=O)NCC(=O)Nc2nc(-c3ccc(O)cc3)cs2)cc1 [Compound 115]
Result: >90%

Query: Recall and state the measured BRM Max % Inhibition for NCCn1ccc(-c2cccc(-c3csc(NC(=O)CNC(=O)c4ccc(N)cc4)n3)c2)cc1=O [Compound 166] .
Result: >95%

Query: Look up BRM Max % Inhibition of Cc1nnc(C(=O)NC(C)(C)c2cc(-c3cccc(-c4csc(NC(=O)CNC(=O)c5ccc(N)cc5)n4)c3)ccn2)o1 [Compound 215] and report it.
Result: >90%

Query: Please look at this compound and report its BRM Max % Inhibition: CN(CC(=O)O)c1cc(-c2cccc(-c3csc(NC(=O)CNC(=O)c4ccc(N)cc4)n3)c2)ccn1 [Compound 200]
Result: >95%

Query: Could you please provide reported BRM Max % Inhibition for CNC(=O)C1(c2cc(-c3cccc(-c4csc(NC(=O)CNC(=O)c5ccc(N)cc5)n4)c3)ccn2)CC1 [Compound 223] ? Thanks!
Result: >95%

Query: Tell me its BRM Max % Inhibition given CNC(=O)Cn1ccc(-c2cccc(-c3csc(NC(=O)CNC(=O)c4ccc(N)cc4)n3)c2)n1 [Compound 216] as the entry.
Result: >90%

Query: Entry CC(=O)NCc1ccc(-c2cccc(-c3csc(NC(=O)CNC(=O)c4ccc(N)cc4)n3)c2)cc1 [Compound 123] needs its BRM Max % Inhibition filled in; supply it.
Result: >80%

Query: Name the recorded BRM Max % Inhibition of the item N#Cc1ccc(-c2cccc(-c3csc(NC(=O)CNC(=O)c4ccc(N)cc4)n3)c2)cc1 [Compound 149] in your answer.
Result: >80%

* * *

# key: entry, value: BRM Max % Inhibition
target: BRM (Homo sapiens); assay: ATPase catalytic activity of BRM (ADP-Glo in vitro biochemical assay); settings: Table 6

CSCC[C@H](NC(=O)c1ccc(N)cc1)C(=O)Nc1nc(-c2cccc(-c3nnco3)c2)cs1 | >95%
CSCC[C@H](NC(=O)c1ccc(N)cc1)C(=O)Nc1nc(-c2cccc(-c3ccnc(C)c3)c2)cs1 | >95%
Cc1cc(-c2cccc(-c3csc(NC(=O)CNC(=O)c4ccc(N)cc4)n3)c2)ccn1 | >95%
Nc1ccc(C(=O)NCC(=O)Nc2nc(-c3cccc(-c4ccnc(CO)c4)c3)cs2)cc1 | >95%
COCC[C@H](NC(=O)c1ccc(N)cc1)C(=O)Nc1nc(-c2cccc(-c3ccncc3)c2)cs1 | >95%

Query: Look up BRM (Homo sapiens) data: BRM Max % Inhibition of Nc1ccc(C(=O)NCC(=O)Nc2nc(-c3cccc(-c4ccnc(N5CCCC(N)C5)c4)c3)cs2)cc1 (centres unmarked) , then report it.
Result: >95%

Query: Enter BRM Max % Inhibition (test system BRM (Homo sapiens)) for "Nc1ccc(C(=O)NCC(=O)Nc2nc(-c3cccc(N4CCOCC4)c3)cs2)cc1"
Result: >90%

Query: Tell me BRM Max % Inhibition of "COC(=O)Cn1cc(-c2cccc(-c3csc(NC(=O)CNC(=O)c4ccc(N)cc4)n3)c2)cn1" when tested on BRM (Homo sapiens).
Result: >90%
